- System: BDF1 mice, B16 melanoma ip, median survival T/C
- Assay: NCI In Vivo Anticancer Drug Screen. Data for tumor model B16 Melanoma (intraperitoneal) in B6D2F1 (BDF1) mice
- Measurement parameters: endpoint: median survival time; dose: 50.0 mg/kg/injection; schedule: Q04DX003 (ip); vehicle: saline with Tween-80; higher = longer survival
Inconclusive results and toxic doses are left out.
Listing of recorded T/C by entry.

These recorded examples may help you get a feel for the data.
Name the reported T/C value associated with the molecule CCCCN(CCCC)CCNc1ccc(Cl)c2oc3cc(C)ccc3c(=O)c12
92 % of control

Also CCN(CCP(c1ccccc1)c1ccccc1)CCP(c1ccccc1)c1ccccc1 , if possible.
109 % of control

Also CCCC(=O)OCc1ccc(Cl)c(Cl)c1 , if possible.
118 % of control

Also CC(=O)OCC(CCC(C)C)=C(C)C , if possible.
104 % of control

Also C#CCOCC(CCl)OC(N)=O (stereo not drawn) , if possible.
111 % of control

Also CN(C)/N=N/c1nc[nH]c1C(N)=O , if possible.
115 % of control

Others:
Name the reported T/C value associated with the molecule Cc1ccc(S(=O)(=O)Nc2ncc([N+](=O)[O-])s2)cc1
109 % of control

Also CC(=O)Nc1cc2c(cc1Br)-c1ccccc1C2O (stereo not drawn) , if possible.
95 % of control
